ASSAY_TARGET: T1, Fc-CLEC1 labelled with Alexa Fluor 488 (human, Alexa Fluor 488 label (sites not given))
T1 construct: also called Fc-CLEC1-A488; Alexa488-Fc-Clec-1
T1 chain: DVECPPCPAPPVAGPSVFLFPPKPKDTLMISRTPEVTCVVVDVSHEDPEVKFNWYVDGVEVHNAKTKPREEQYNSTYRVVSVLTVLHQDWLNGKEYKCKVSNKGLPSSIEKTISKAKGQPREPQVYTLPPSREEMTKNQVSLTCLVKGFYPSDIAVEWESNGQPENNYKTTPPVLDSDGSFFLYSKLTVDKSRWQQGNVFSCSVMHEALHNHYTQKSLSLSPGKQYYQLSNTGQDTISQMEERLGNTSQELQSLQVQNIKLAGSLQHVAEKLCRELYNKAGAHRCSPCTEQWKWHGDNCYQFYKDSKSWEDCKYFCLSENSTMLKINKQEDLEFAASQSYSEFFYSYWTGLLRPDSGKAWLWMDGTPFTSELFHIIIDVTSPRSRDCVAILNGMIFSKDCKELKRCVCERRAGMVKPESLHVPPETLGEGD
TEST_PROTOCOL: FACS competition: blocks Fc-CLEC1-A488 (20 nM) binding to CLEC-1 ligand on permeabilised Raji cells; read-out Mean
READOUT_TYPE: IC50 (µg/mL)
Answers are plain numbers, in µg/mL.

# BINDER, READOUT_TYPE, QUANTITY_UNIT, OBSERVED
data = [
    ("murine anti-hCLEC1 antibody 11H11-G11 (antibody, V domains shown, Mouse hybridoma antibody) VH: QIHLVQSGPELKKPGETVKISCKASGYTFTNFGMNWVKQAPGKGLKWMGWINTNTGEPTYADDFKGRFAFSLETSASTAYLQINNLKNEDTATYFCARGAPAWFTYWGQGTLVTVSA VL: DIQMTQSPASLSASVGETVTITCRATENIYSYLAWYQQKQGKSPQFLVYNAKTLAEGMPSRFSGSGSGTQFSLKINILQPEDFGTYYCQHHFGTPLTFGAGTKLELK", "IC50", "µg/mL", 0.72),
]

# batch size: 3; output IC50 per entry
1. murine anti-hCLEC1 antibody 15E3-G3 (antibody, V domains shown, Mouse hybridoma antibody) VH: QVQLQQSGPELVKPGASVKMSCKASGFTFTDYVIAWVKVRTGQGLEWIGEIYPGSGSIYYNEKFKGKATLTADKSSNTAYMQLSSLTSEDSAVYFCASSTVVAFDYWGQGTTLTVSS VL: EIVLTQSPTTLAASPGEKIIITCSDSSSISSNYLHWYQQKPGFSPKLLIYGTSNLASGVPARFSGSGSGTTYSLTIGTMEAEDVATYYCQQGSSIPRTFGGGTKLEIK
2. murine anti-hCLEC1 antibody 5D1-A5 (antibody, V domains shown, Mouse hybridoma antibody) VH: QVQLKESGPGLVAPSQSLSITCTISGFSLTSYGVHWVRQPPGKGLEWLVVIWSDGSTIYNSALKSRLSISKDNSKSQVFLKMNSLQTDDTAMYYCARHGGYYNYFDYWGQGTTLTVSS VL: DIQMNQSPSSLSASLGDTITITCHASQNINVWLSWYQQKPGNIPKLLIYKASNLHTGVPSRFSGSGSGTGFTLTISSLQPEDIATYYCQQGQSYWTFGGGTKLEIK
3. murine anti-hCLEC1 antibody 14H9-F3 (antibody, V domains shown, Mouse hybridoma antibody) VH: QVQLKESGPGLVAPSQSLSITCTISGFSLTTYGIHWVRQPPGKGLEWLVVIWSDGSTIYNSALKSRLSISKDNSKSQVFLKMNSLQTDDTAIYYCARHGGYYNYFDYWGQGTTLTVSS VL: DIQMNQSPSSLSASLGDTITITCHASQNINVWLSWYQQKPGNIPKLLIYKASNLHTGVPSRFSGSGSGTTFTLTIDSLQPEDIATYYCQQGQSYWTFGGGTKLEIK

Out:
1: 3; 2: 3.1; 3: 2.5
